Ref: the supplement of paper PMC7840683

# LDH release cytotoxicity listing for each entry below
tested on: HepaRG; test: LDH release cytotoxicity, % of total lysis control; higher = more cytotoxic; conditions: 0.03162 µM; 48 h
Counter-ions that a name gives are not always drawn.
measured-attribute: LDH release cytotoxicity

compound="CC(O)CC(C)(C)O (centres undefined)" recorded_measurement=-1.84%
compound=O=c1ccc2ccccc2o1 recorded_measurement=-1.09%
compound=CCCOCC(=Nc1ccc(Cl)cc1C(F)(F)F)n1ccnc1 recorded_measurement=-0.709%
compound=O=C(O)C(F)(F)C(F)(F)C(F)(F)C(F)(F)C(F)(F)C(F)(F)C(F)(F)C(F)(F)F recorded_measurement=-0.689%
compound=CN(C)c1ccc(N=NS(=O)(=O)O)cc1 recorded_measurement=-1.38%
compound="Cc1c(F)c(F)c(COC(=O)C2C(C=C(Cl)C(F)(F)F)C2(C)C)c(F)c1F (centres undefined)" recorded_measurement=-0.665%
compound=Clc1ccccc1-c1nnc(-c2ccccc2Cl)nn1 recorded_measurement=-1.43%
compound=Cc1cc(NC(=O)C(=O)O)cc(C)c1Oc1ccc(O)c2c1CCC2 recorded_measurement=0.0573%
compound="CC(=O)C1CCC2C3CCC4=CC(=O)CCC4(C)C3CCC12C (centres undefined)" recorded_measurement=0.112%
compound="COC(=O)CCC(=O)OC [Dimethyl succinate]" recorded_measurement=-1.91%
compound=O=S(=O)(O)c1ccc(N=Nc2c(O)ccc3cc(S(=O)(=O)O)ccc23)cc1 recorded_measurement=-2.21%
compound=Cc1[nH]nc2c1N=C(c1ccccc1Cl)c1cc([N+](=O)[O-])ccc1N2 recorded_measurement=-0.496%
compound="OCC1OC(OC2(CO)OC(CO)C(O)C2O)C(O)C(O)C1O (centres undefined)" recorded_measurement=-1.56%
compound=CN1CCN(c2ccccc2C=C2SCCN(c3ccc(Cl)c(Cl)c3)C2=O)CC1 recorded_measurement=0.236%
compound="CC(=O)SC1CC2=CC(=O)CCC2(C)C2CCC3(C)C(CCC34CCC(=O)O4)C12 (centres undefined)" recorded_measurement=0.148%
compound=CNC(=O)ON=C(SC)C(=O)N(C)C recorded_measurement=-0.761%
compound=CCCN(CCC)c1c([N+](=O)[O-])cc(S(N)(=O)=O)cc1[N+](=O)[O-] recorded_measurement=-2.37%
compound="COc1cc(-c2ccc(N)c(OC)c2)ccc1N [3,3'-Dimethoxybenzidine dihydrochloride]" recorded_measurement=-1.44%
compound=CC1(C)NC(=O)N(c2ccc([N+](=O)[O-])c(C(F)(F)F)c2)C1=O recorded_measurement=-1.89%
compound=COC(=O)c1c(C(F)F)nc(C(F)(F)F)c(C2=NCCS2)c1CC(C)C recorded_measurement=-0.958%
compound=CCNC(=O)NC(=O)C(C#N)=NOC recorded_measurement=-0.835%
compound="CC1(C)C(C=C(Cl)Cl)C1C(=O)OC(C#N)c1cccc(Oc2ccccc2)c1 (centres undefined)" recorded_measurement=-0.819%
compound="CSC1=NC(C)(c2ccccc2)C(=O)N1Nc1ccccc1 (centres undefined)" recorded_measurement=-1.05%
compound="O=C1NS(=O)(=O)c2ccccc21 [Sodium saccharin hydrate]" recorded_measurement=-0.893%

###

tested on: HepaRG; test: LDH release cytotoxicity, % of total lysis control; higher = more cytotoxic; details: 10 µM; 48 h
# LDH release cytotoxicity listing for each entry below
measured-attribute: LDH release cytotoxicity (%)

compound="c1cc2c3c(cccc3c1)CC2 [Acenaphthene]" measured_attribute="LDH release cytotoxicity" recorded_measurement=0.635
compound="CCCCCCCCCCCCO [1-Dodecanol]" measured_attribute="LDH release cytotoxicity" recorded_measurement=-0.892
compound="CCCC1=NC(=S)NC(=O)C1 [6-Propyl-2-thiouracil]" measured_attribute="LDH release cytotoxicity" recorded_measurement=-1.9
compound="CCCCCCCCCCCCCO [1-Tridecanol]" measured_attribute="LDH release cytotoxicity" recorded_measurement=0.564
compound="CC1COC(Cn2cncn2)(c2ccc(Oc3ccc(Cl)cc3)cc2Cl)O1 (stereo not drawn) [Difenoconazole]" measured_attribute="LDH release cytotoxicity" recorded_measurement=-0.701
compound="CC(COc1ccc(Oc2ccccc2)cc1)Oc1ccccn1 (stereo not drawn) [Pyriproxyfen]" measured_attribute="LDH release cytotoxicity" recorded_measurement=-2.89
compound="CCCCCCCCOC(=O)CCCCCCCCC(=O)OCCCCCCCC [Dioctyl sebacate]" measured_attribute="LDH release cytotoxicity" recorded_measurement=-0.887
compound="NC(=O)N1C(=O)C(C(=O)c2cc(Cl)cs2)c2cc(F)c(Cl)cc21 (stereo not drawn)" measured_attribute="LDH release cytotoxicity" recorded_measurement=1.12
compound="CN(C)NC(=O)CCC(=O)O [Daminozide]" measured_attribute="LDH release cytotoxicity" recorded_measurement=-0.0868
compound="CN(C)CCO [Dimethylaminoethanol]" measured_attribute="LDH release cytotoxicity" recorded_measurement=-1.02
compound="Clc1ccc(C(Cl)(Cl)Cl)cc1 [4-Chlorobenzotrichloride]" measured_attribute="LDH release cytotoxicity" recorded_measurement=-1.13
compound="CCCN(CCC)c1c([N+](=O)[O-])cc(C(F)(F)F)c(N)c1[N+](=O)[O-] [Prodiamine]" measured_attribute="LDH release cytotoxicity" recorded_measurement=-1.16
compound="CCC(C)C(=O)OC1CC(O)C=C2C=CC(C)C(CCC(O)CC(O)CC(=O)O)C21 (stereo not drawn) [Pravastatin sodium]" measured_attribute="LDH release cytotoxicity" recorded_measurement=0.11
